Taken from patent US12110294B2.

Biological target: CD73 activity in MDA-MB-231-GFP cells (Homo sapiens, UniProt P21589)
Construct: endogenous in cells; host or cells: MDA-MB-231-GFP cells
Assay: MDA-MB-231 Cell Based CD73 Activity Assay
Conditions: 10000 cells per well, RPMI medium with 10% human plasma, overnight compound treatment, AMP 200 μM
RECORDED ENDPOINT: EC50 (nM)

(1) O=c1[nH]cc(-c2cc([C@H]3C[C@@H]3c3ccccc3)c3nccn3n2)c(=O)[nH]1 (racemic)
(2) O=c1[nH]cc(-c2cc([C@@H]3C[C@H]3c3cc(F)c(F)c(F)c3)c3nccn3n2)c(=O)[nH]1 (racemic)
query: Of the two listed items, which has the higher EC50? First: 1 Second: 2 Respond with the label that goes with your answer.
result: 1
(1: 23.2 nM, 2: 6.51 nM)

(1) N#Cc1ccccc1[C@H]1C[C@@H]1c1cc(-c2c[nH]c(=O)[nH]c2=O)nn2ccnc12
(2) O=c1[nH]cc(-c2cc([C@H]3C[C@@H]3c3ccccc3)c3ncc(F)n3n2)c(=O)[nH]1 (racemic)
query: Lowest EC50? choose 1 or 2 Respond with the label that goes with your answer.
result: 2
(2: 3.24 nM, 1: 19 nM)

(A) O=c1[nH]cc(-c2cc(N3CCC[C@H]3c3ccc(F)cc3)c3nccn3n2)c(=O)[nH]1
(B) O=c1[nH]cc(-c2cc([C@@H]3C[C@H]3c3cccc(F)c3F)c3nccn3n2)c(=O)[nH]1 (racemic)
query: Lowest EC50? choose A or B Respond with the label that goes with your answer.
result: B

(a) O=c1[nH]cc(-c2cc([C@@H]3C[C@H]3c3ccc(F)cc3)c3nccn3n2)c(=O)[nH]1 (racemic)
(b) O=c1[nH]cc(-c2cc([C@@H]3C[C@H]3c3ccc(F)cc3F)c3nccn3n2)c(=O)[nH]1 (racemic)
query: Of the two listed items, which has the higher EC50? First: a Second: b Respond with the label that goes with your answer.
result: b

---

Target: CD73 (Homo sapiens, UniProt P21589)
Construct: purchased R&D system
Experiment: CD73 Biochemical IC50 Assay
Settings: final AMP 15 uM, final CD73 0.3 nM, 25 mM Tris pH 7.4, 5 mM MgCl2, no phosphate
pIC50: −log10 of the molar value.
RECORDED ENDPOINT: pIC50

# MOLECULE, RECORDED ENDPOINT, READOUT NUMBER
rows = [
    ("COc1ccc([C@H]2C[C@@H]2c2cc(-c3c[nH]c(=O)[nH]c3=O)nn3ccnc23)cc1", "pIC50", 7.69),
]

(1) O=c1[nH]cc(-c2cc([C@@H]3C[C@H]3C(F)(F)F)c3nccn3n2)c(=O)[nH]1 (racemic)
(2) O=c1[nH]cc(-c2cc([C@H]3C[C@@H]3c3cccc(F)c3)c3nccn3n2)c(=O)[nH]1 (racemic)
query: Lowest pIC50? choose 1 or 2 Respond with the label that goes with your answer.
result: 1
(1: 7.33, 2: 7.79)

---

Biological target: CD73 (Homo sapiens)
Construct: purchased R&D system
Sequence (P21589 27-549): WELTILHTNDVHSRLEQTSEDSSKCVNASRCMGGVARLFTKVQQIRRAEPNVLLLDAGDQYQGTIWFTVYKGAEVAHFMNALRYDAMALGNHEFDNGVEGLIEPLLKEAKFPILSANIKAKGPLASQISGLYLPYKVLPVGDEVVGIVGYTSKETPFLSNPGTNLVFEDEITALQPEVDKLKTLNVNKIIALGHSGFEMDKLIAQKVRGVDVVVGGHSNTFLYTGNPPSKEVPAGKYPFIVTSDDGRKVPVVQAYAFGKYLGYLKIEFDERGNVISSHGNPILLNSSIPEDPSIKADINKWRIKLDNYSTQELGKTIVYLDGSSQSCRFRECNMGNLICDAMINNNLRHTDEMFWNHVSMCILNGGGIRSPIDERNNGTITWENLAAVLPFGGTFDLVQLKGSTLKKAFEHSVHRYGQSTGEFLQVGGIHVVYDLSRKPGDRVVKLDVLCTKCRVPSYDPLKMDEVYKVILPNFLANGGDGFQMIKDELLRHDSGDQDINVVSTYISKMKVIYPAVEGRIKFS
Type: biochemical
Conditions: 1 mM NaH2PO4 in enzyme buffer, final AMP 15 uM, final CD73 0.3 nM
RECORDED ENDPOINT: IC50 (nM)

# MOLECULE, IC50 [nM]
records = [
    ("N#Cc1cc([C@@H]2C[C@H]2c2cc(-c3c[nH]c(=O)[nH]c3=O)nn3ccnc23)ccc1F (racemic)", 1.5),
]

(A) O=c1[nH]cc(-c2cc(N3C[C@@H](O)C(F)(F)C3)c3nccn3n2)c(=O)[nH]1 (single isomer, unassigned)
(B) O=c1[nH]cc(-c2cc(N3C[C@@H](F)[C@@H](F)C3)c3nccn3n2)c(=O)[nH]1
(C) O=c1[nH]cc(-c2cc([C@H]3C[C@@H]3c3ccc(C(F)F)cn3)c3nccn3n2)c(=O)[nH]1 (racemic)
query: Order the 3 molecules from highest to lowest IC50. Please respond by ranking the labels in the order requested.
result: A, B, C

(1) O=c1[nH]cc(-c2cc([C@H]3C[C@@H]3c3cc4c(cnn4CC(F)(F)F)cc3F)c3ncc(F)n3n2)c(=O)[nH]1
(2) CN(C)C(=O)c1cn2nc(-c3c[nH]c(=O)[nH]c3=O)cc([C@H]3C[C@@H]3c3ccc(F)cc3)c2n1 (racemic)
(3) O=c1[nH]cc(-c2cc([C@H]3C[C@@H]3c3nc(C(F)(F)F)cs3)c3nccn3n2)c(=O)[nH]1 (racemic)
(4) O=c1[nH]cc(-c2cc(N3C[C@H](O)C(F)(F)C3)c3nccn3n2)c(=O)[nH]1 (single isomer, unassigned)
query: Endpoint returns the given molecules ordered by ascending IC50. Please respond by ranking the labels in the order requested.
result: 1, 4, 2, 3
(1: 0.58 nM, 4: 5.66 nM, 2: 11 nM, 3: 17.5 nM)

---

Target: CD73 activity in MDA-MB-231-GFP cells (Homo sapiens, UniProt P21589)
Construct: endogenous in cells; host or cells: MDA-MB-231-GFP cells
Experiment: MDA-MB-231 Cell Based CD73 Activity Assay (DMEM)
Details: 3000 cells per well, DMEM medium with 10% human plasma, overnight compound treatment, AMP 200 uM
RECORDED ENDPOINT: EC50 (nM)

# COMPOUND, TARGET OR SYSTEM, READOUT NUMBER
records = [
    ("O=c1[nH]cc(-c2cc([C@H]3C[C@@H]3c3ccc4cnn(CCC(F)(F)F)c4c3)c3nccn3n2)c(=O)[nH]1 (racemic)", "CD73 activity in MDA-MB-231-GFP cells (Homo sapiens, UniProt P21589)", 2.53),
]

(P) O=c1[nH]cc(-c2cc([C@H]3C[C@@H]3c3ncc(C(F)(F)F)s3)c3nccn3n2)c(=O)[nH]1 (racemic)
(Q) NC(=O)c1cccc([C@H]2C[C@@H]2c2cc(-c3c[nH]c(=O)[nH]c3=O)nn3ccnc23)c1 (racemic)
query: Lowest EC50? choose P or Q Respond with the label that goes with your answer.
result: Q
(Q: 3.49 nM, P: 34 nM)

---

Target: CD73 activity in MDA-MB-231-GFP cells (Homo sapiens, UniProt P21589)
Construct: endogenous in cells; host or cells: MDA-MB-231-GFP cells
Sequence (P21589 27-549): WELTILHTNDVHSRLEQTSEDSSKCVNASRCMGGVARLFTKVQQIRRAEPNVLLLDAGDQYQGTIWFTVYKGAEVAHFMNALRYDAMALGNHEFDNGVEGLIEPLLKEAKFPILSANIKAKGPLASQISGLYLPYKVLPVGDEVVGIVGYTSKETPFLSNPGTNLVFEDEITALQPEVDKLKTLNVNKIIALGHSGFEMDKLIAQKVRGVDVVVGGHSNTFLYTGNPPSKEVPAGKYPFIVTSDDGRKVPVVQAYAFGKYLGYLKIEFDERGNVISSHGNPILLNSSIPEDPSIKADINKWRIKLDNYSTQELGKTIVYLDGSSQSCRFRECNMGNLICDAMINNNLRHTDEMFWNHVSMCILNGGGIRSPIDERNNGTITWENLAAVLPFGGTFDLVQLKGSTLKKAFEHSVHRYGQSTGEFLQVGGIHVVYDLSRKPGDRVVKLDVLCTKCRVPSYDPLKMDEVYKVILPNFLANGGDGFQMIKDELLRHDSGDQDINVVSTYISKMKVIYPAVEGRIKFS
Assay: MDA-MB-231 Cell Based CD73 Activity Assay (DMEM)
Details: 3000 cells per well, DMEM medium with 10% human plasma, overnight compound treatment, AMP 200 uM
RECORDED ENDPOINT: EC50 (nM)

# MOLECULE, TARGET OR SYSTEM, UNIT TAG, READOUT NUMBER
data = [
    ("N#Cc1ccc([C@H]2C[C@@H]2c2cc(-c3c[nH]c(=O)[nH]c3=O)nn3ccnc23)nc1 (racemic)", "CD73 activity in MDA-MB-231-GFP cells (Homo sapiens, UniProt P21589)", "nM", 5.42),
]

(P) Cn1cc([C@H]2C[C@@H]2c2cc(-c3c[nH]c(=O)[nH]c3=O)nn3ccnc23)ccc1=O (racemic)
(Q) O=C(c1ccc([C@H]2C[C@@H]2c2cc(-c3c[nH]c(=O)[nH]c3=O)nn3ccnc23)cc1)N1CC(F)(F)C(F)(F)C1 (racemic)
(R) O=c1[nH]cc(-c2cc([C@H]3C[C@@H]3c3ccc(OCC(F)(F)F)cn3)c3nccn3n2)c(=O)[nH]1 (racemic)
query: Order the 3 molecules from highest to lowest EC50. Please respond by ranking the labels in the order requested.
result: Q, P, R
(Q: 27.7 nM, P: 9.45 nM, R: 5.5 nM)
